- Tested on: Mycobacterium tuberculosis
- test description: Antimycobacterial activity against isoniazid/rifampicin-resistant Mycobacterium tuberculosis isolate 16995 after 7 days by Alamar blue assay
- Format: functional
- test settings: isolate 16995, 168 h
reported property: MIC (µg/mL)

- mol: "O=C(NCc1ccc2c(c1)CN(Cc1ccc(C(F)(F)F)cc1)C2)c1cc([N+](=O)[O-])cc([N+](=O)[O-])c1"
  unit name: "µg/mL"
  readout value: 0.308
- mol: "O=C(NCc1ccc2c(c1)CCN(c1ccc(F)cc1)C2)c1cc([N+](=O)[O-])cc([N+](=O)[O-])c1"
  unit name: "µg/mL"
  readout value: 0.078
- mol: "O=C(NCc1ccc2c(c1)CCN(c1ccc(C(F)(F)F)cc1)C2)c1cc([N+](=O)[O-])cc([N+](=O)[O-])c1"
  unit name: "µg/mL"
  readout value: 0.302
